Values compiled from patent US20140294898A1.

Reported IC50 values follow for various binders
biological target: T1, hPDL1(19-239)-TVMV-His (human, UniProt Q9NZQ7 19-239); assay: HTRF competition, PD-1-Ig binding to PD-L1-His
T1 construct: The text says amino acids 18-239, the construct name says 19-239; Expressed in HEK293T cells; Used at 10 nM final in the HTRF assay; also called PD-L1-His; PD-L1-TVMV-His
T1 sequence (Q9NZQ7 other isoform, or with tags, fused parts or gaps limits assumed): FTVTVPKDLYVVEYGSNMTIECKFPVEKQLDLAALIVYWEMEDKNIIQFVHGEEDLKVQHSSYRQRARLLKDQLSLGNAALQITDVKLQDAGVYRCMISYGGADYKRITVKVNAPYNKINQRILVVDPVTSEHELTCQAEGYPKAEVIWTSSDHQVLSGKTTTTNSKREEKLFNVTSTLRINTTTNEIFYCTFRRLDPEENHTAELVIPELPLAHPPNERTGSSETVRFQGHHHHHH
Positions of bridges follow the written chain, without caps; N, C: chain ends. Non-standard residues stand in square brackets, D forms with d. Bip = N[C@@H](Cc1ccc(-c2ccccc2)cc1)C(=O)O; 1Nal = N[C@@H](Cc1cccc2ccccc12)C(=O)O; NMeNle = CCCC[C@H](NC)C(=O)O; NMeA = CN[C@@H](C)C(=O)O; Aze = O=C(O)[C@@H]1CCN1; Sar = CNCC(=O)O
Express the result in µM but write the number alone.

binder	unit symbol	IC50
{CH2CO}-[1Nal][NMeA]NPHL[Sar]WSW[NMeNle][NMeNle]RCG-NH2 (thioether N-14; SMILES CCCC[C@H]1C(=O)N(C)[C@@H](CCCC)C(=O)N[C@@H](CCCNC(=N)N)C(=O)N[C@H](C(=O)NCC(N)=O)CSCC(=O)N[C@@H](Cc2cccc3ccccc23)C(=O)N(C)[C@@H](C)C(=O)N[C@@H](CC(N)=O)C(=O)N2CCC[C@H]2C(=O)N[C@@H](Cc2c[nH]cn2)C(=O)N[C@@H](CC(C)C)C(=O)N(C)CC(=O)N[C@@H](Cc2c[nH]c3ccccc23)C(=O)N[C@@H](CO)C(=O)N[C@@H](Cc2c[nH]c3ccccc23)C(=O)N1C) [Compound No. 27]	µM	0.02
{CH2CO}-[Bip][NMeA]NPHL[Sar]WSW[NMeNle][NMeNle]RCG-NH2 (thioether N-14; SMILES CCCC[C@H]1C(=O)N(C)[C@@H](CCCC)C(=O)N[C@@H](CCCNC(=N)N)C(=O)N[C@H](C(=O)NCC(N)=O)CSCC(=O)N[C@@H](Cc2ccc(-c3ccccc3)cc2)C(=O)N(C)[C@@H](C)C(=O)N[C@@H](CC(N)=O)C(=O)N2CCC[C@H]2C(=O)N[C@@H](Cc2c[nH]cn2)C(=O)N[C@@H](CC(C)C)C(=O)N(C)CC(=O)N[C@@H](Cc2c[nH]c3ccccc23)C(=O)N[C@@H](CO)C(=O)N[C@@H](Cc2c[nH]c3ccccc23)C(=O)N1C) [Compound No. 28]	µM	0.117
{CH2CO}-F[NMeA]GPHL[Sar]WSW[NMeNle][NMeNle]RCG-NH2 (thioether N-14; SMILES CCCC[C@H]1C(=O)N(C)[C@@H](CCCC)C(=O)N[C@@H](CCCNC(=N)N)C(=O)N[C@H](C(=O)NCC(N)=O)CSCC(=O)N[C@@H](Cc2ccccc2)C(=O)N(C)[C@@H](C)C(=O)NCC(=O)N2CCC[C@H]2C(=O)N[C@@H](Cc2c[nH]cn2)C(=O)N[C@@H](CC(C)C)C(=O)N(C)CC(=O)N[C@@H](Cc2c[nH]c3ccccc23)C(=O)N[C@@H](CO)C(=O)N[C@@H](Cc2c[nH]c3ccccc23)C(=O)N1C) [Compound No. 43]	µM	0.554

Note: attention shifts to another entry.
Data request, read-out IC50, for {CH2CO}-F[NMeA]N[Aze]HL[Sar]WSW[NMeNle][NMeNle]RCG-NH2 (thioether N-14; SMILES CCCC[C@H]1C(=O)N(C)[C@@H](CCCC)C(=O)N[C@@H](CCCNC(=N)N)C(=O)N[C@H](C(=O)NCC(N)=O)CSCC(=O)N[C@@H](Cc2ccccc2)C(=O)N(C)[C@@H](C)C(=O)N[C@@H](CC(N)=O)C(=O)N2CC[C@H]2C(=O)N[C@@H](Cc2c[nH]cn2)C(=O)N[C@@H](CC(C)C)C(=O)N(C)CC(=O)N[C@@H](Cc2c[nH]c3ccccc23)C(=O)N[C@@H](CO)C(=O)N[C@@H](Cc2c[nH]c3ccccc23)C(=O)N1C) [Compound No. 50]
0.071
